Kindly state activation for each of the entries shown.
biological target: Glucocorticoid receptor (Homo sapiens) (UniProt P04150); assay: qHTS assay for small molecule agonists of glucocorticoid receptor signaling (AID 588532); conditions: HeLa MMTV-bla, beta-lactamase ratio, agonist, 18 h; stronger effect = higher value; percent of dexamethasone control, DMSO zero;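 further: 100% = dexamethasone at 0.1 µM and 0% = DMSO only wells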
Sequence (P04150 whole entry, looked up): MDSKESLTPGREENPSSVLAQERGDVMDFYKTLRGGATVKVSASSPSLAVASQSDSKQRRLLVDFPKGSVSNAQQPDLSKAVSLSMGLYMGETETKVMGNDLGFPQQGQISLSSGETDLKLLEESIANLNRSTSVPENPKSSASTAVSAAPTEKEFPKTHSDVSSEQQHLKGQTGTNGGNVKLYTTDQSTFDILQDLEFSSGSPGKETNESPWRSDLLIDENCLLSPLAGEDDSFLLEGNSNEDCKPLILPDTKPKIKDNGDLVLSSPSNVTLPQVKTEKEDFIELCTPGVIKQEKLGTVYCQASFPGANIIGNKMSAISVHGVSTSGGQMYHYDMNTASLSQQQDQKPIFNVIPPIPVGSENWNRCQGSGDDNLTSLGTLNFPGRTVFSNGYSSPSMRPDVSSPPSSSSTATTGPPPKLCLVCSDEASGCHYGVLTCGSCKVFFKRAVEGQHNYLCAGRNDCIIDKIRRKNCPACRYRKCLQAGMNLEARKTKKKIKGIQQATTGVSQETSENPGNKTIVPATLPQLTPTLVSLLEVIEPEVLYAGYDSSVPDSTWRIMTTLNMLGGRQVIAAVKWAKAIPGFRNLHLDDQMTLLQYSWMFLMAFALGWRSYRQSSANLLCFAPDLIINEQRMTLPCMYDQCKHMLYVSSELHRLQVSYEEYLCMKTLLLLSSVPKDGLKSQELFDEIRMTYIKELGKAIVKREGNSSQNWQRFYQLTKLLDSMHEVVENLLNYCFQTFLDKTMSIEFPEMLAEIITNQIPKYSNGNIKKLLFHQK
Records with an inconclusive call do not appear. Active and inactive are the calls of the source. The call rests on the fitted dose curve; in most records, active means well fitted curve in the direction sought with a large enough effect in the signal ratio, with a control signal flat; inconclusive means small, poorly fitted or top-dose-only effect, or a change in a side signal; inactive means no such curve, though single readings can be large or run the other way; the % refers to the signal ratio.

Example molecules with recorded activation:
>  <molecule>
CCOC(C)=O

>  <target of assay>
Glucocorticoid receptor (Homo sapiens) (UniProt P04150)

>  <attribute measured>
activation

>  <reported result>
-2.25% (inactive)

$$$$
>  <molecule>
O=CCCCC=O

>  <target of assay>
Glucocorticoid receptor (Homo sapiens) (UniProt P04150)

>  <attribute measured>
activation

>  <reported result>
5.8% (inactive)

$$$$
>  <molecule>
CCCCC(CC)COC(=O)CC(C(=O)OCC(CC)CCCC)S(=O)(=O)O (centres undefined)

>  <target of assay>
Glucocorticoid receptor (Homo sapiens) (UniProt P04150)

>  <attribute measured>
activation

>  <reported result>
-0.211% (inactive)

$$$$

Kindly consider the entry below.
Req: What does the data say about its activation? Entry: `O=C(O)CCC(=O)C(=O)O`
Resp: -1.14% (inactive)
